# TGT: furin, P09958
# Sequence (P09958 whole entry): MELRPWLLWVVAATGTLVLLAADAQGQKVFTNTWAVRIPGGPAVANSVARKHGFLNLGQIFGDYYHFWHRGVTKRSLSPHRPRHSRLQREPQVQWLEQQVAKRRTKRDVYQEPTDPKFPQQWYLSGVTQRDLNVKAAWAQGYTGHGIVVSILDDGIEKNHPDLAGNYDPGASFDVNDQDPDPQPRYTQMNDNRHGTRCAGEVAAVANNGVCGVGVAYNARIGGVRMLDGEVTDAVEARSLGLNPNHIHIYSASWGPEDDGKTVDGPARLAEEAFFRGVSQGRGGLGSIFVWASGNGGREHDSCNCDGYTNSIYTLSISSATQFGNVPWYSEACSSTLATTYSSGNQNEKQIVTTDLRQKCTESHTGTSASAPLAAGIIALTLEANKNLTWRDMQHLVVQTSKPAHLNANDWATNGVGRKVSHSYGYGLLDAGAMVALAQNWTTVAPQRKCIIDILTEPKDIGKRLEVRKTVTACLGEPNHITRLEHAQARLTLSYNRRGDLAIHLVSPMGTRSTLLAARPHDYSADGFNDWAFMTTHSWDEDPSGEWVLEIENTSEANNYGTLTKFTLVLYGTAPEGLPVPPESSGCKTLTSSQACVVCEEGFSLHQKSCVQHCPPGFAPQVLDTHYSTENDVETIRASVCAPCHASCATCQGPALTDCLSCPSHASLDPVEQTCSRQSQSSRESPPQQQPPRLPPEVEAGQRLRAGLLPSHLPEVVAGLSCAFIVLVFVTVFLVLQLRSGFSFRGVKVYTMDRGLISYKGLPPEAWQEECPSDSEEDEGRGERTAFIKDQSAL
# EXPERIMENT SUMMARY: furin cleavage Z-score vs untreated control; higher = more cleavage, active = 3.5 or more, inactive = 1 or less, 8 variable residues between constant flanks;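 note: purified furin at 1:10 enzyme:substrate in 50 mM HEPES pH 7.5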
# PROTOCOL CONDITIONS: 30 min
This is one part of the list. No count for the full screen is at hand.
Recorded furin cleavage Z-score by entry

Worked set:
CAGVVCAAILAGNASASA [HC1108]
1.2
CAREKRGWTMAGNASASA [FS-2549]
2.06
CAVILDSFDPAGNASASA [HC1286]
1.13

Now, please, on to the next sequence.
Data request: Fill in the blank: the reported furin cleavage Z-score of CARDQRSVLAAGNASASA [FS-2206] is ____.
Data returned: 2.37
